These measurements were taken from patent US20160355503A1.

# Tested on: A549 cells
# Assay Details: Cultured cancer cell viability assay (cell titer glo, CTG)
# Assay type: cell-based
# Condition Info: Homo sapiens, 72 hr incubation
Listed here: items and their measured IC50.

- Smiles Representation: "Cc1nc(NCc2ccccc2)nc(-n2c(C)cc3c(C(N)=O)cccc32)n1"
  IC50: "< 10 µM"
- Smiles Representation: "CCc1nnc(-n2c(C)cc3c(C(N)=O)cccc32)nc1NCc1ccccc1"
  IC50: "< 1 µM"
- Smiles Representation: "Cc1nnc(-n2c(C)cc3c(C(N)=O)cccc32)nc1NCc1ccccc1"
  IC50: "< 3 µM"
- Smiles Representation: "Cc1nnc(-n2c(C)cc3c(C(N)=O)cccc32)nc1NCc1cccc(F)c1"
  IC50: "< 10 µM"
